The reported numbers originate from the supplement of paper PMC13380429.

Assign drug-induced phospholipidosis to each entry below.
Test system: A549-ACE2
Assay: drug-induced phospholipidosis relative to tamoxifen; higher = more phospholipidosis
Settings: 3.33333 µM; 48 h
Supply the numeric figure in %, leaving out any unit text.

In one line, give reported drug-induced phospholipidosis of the entry CNCc1ccc(-c2cc(-c3nc(-c4ccc(S(=O)(=O)C(C)C)cc4)cnc3N)on2)cc1 [VE-822] .
89.1

In one line, give reported drug-induced phospholipidosis of the entry CCCN1CCN(c2ccc(C(=O)NC3(C(=O)NCC#N)CCCCC3)cc2)CC1 [balicatib] .
0.49

In one line, give reported drug-induced phospholipidosis of the entry C=C1C(=O)O[C@@H]2C[C@@]3(C)CCC[C@H](C)C3=C[C@H]12 [alantolactone] .
-1.92

In one line, give reported drug-induced phospholipidosis of the entry Cc1ccc(S(=O)(=O)/C=C/C#N)cc1 [BAY-11-7082] .
-1.24
